Entries below carry reported IC50 on UniProt:P12931.
Sequence (P12931 2-536 limits assumed): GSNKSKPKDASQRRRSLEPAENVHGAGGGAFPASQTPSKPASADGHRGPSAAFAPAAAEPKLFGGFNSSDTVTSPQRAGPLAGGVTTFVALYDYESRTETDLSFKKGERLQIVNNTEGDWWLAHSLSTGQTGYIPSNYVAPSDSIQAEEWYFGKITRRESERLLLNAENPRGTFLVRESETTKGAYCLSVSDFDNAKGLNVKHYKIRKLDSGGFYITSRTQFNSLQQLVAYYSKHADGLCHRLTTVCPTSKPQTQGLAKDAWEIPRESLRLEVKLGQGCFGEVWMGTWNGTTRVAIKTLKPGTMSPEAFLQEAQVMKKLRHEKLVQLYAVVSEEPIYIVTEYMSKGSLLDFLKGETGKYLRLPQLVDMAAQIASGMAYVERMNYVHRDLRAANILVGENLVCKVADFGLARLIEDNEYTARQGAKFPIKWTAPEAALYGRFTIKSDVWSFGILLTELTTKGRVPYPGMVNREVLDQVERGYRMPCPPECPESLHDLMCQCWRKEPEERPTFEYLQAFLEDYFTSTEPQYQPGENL

Cc1cccc(C)c1/C=C/n1cnc2c(Nc3ccc(P(C)(C)=O)cc3)ncnc21 = 8.31 nM

Assay UniProt:P12931, sample `Cc1cccc(C)c1/C=C/n1cnc2c(Nc3ccc(P(C)(C)=O)cc3)nc(Oc3cccnc3)nc21` , IC50 read: < 0.46 nM

Assay UniProt:P12931, sample `Cc1ccc2[nH]ncc2c1/C=C/n1cnc2c(Nc3ccc(P(C)(C)=O)cc3)ncnc21` , IC50 read: < 0.46 nM

Assay UniProt:P12931, sample `Cc1cccc(C)c1/C=C/n1cnc2c(Nc3ccc(P(C)(C)=O)cc3)nc(N3CCOCC3)nc21` , IC50 read: < 0.23 nM

Assay UniProt:P12931, sample `Cc1cccc(C)c1/C=C/n1cnc2c(Nc3ccc(P(C)(C)=O)cc3)nc(C3CCN(C)CC3)nc21` , IC50 read: < 0.46 nM
